# Test system: FGFR4;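 note: KINOMEscan kinase panel screen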
# appliedConditions: concentration: 1 μM, replicates: in singlicate; n = 1
endpointLabel: %Inh (%)
Give a bare numeral; the unit % is implied.

For record `NS(=O)(=O)c1cccc(-c2ccc3ncc(N4CCOCC4)nc3c2)c1` the listed %Inh is 15

For record Cc1c(Cn2c(C)nn3c(=O)cc(N4CCOC(C)C4)nc23)cccc1C(F)(F)F (stereo not drawn) the listed %Inh is 0

For record `Cc1nnc(-c2ccc(C)c(-c3ccc(C(=O)Nc4ccc(NS(C)(=O)=O)cc4)cc3)c2)o1` the listed %Inh is 0

For record `Fc1ccc(-c2ncn(CCCN3CCOCC3)c2-c2cccnc2)cc1` the listed %Inh is 0

For record `NS(=O)(=O)CCc1cccc(Nc2nccc(-c3c(-c4cccc(NC(=O)c5c(F)cccc5F)c4)nn4ccccc34)n2)c1` the listed %Inh is 0

For record `O=C(Nc1cccc(-c2nn3ncccc3c2-c2ccnc(Nc3cccc(C(F)(F)F)c3)n2)c1)c1c(F)cccc1F` the listed %Inh is 0

For record `CCn1cnc2c(N)ncnc21` the listed %Inh is 0

For record `COc1ccc(COc2cc(-n3cnc4ccccc43)sc2C(N)=O)cc1` the listed %Inh is 0

For record `COCCNC(=O)c1ccc(-c2cc(C(=O)NC3CC3)cc(F)c2C)cc1` the listed %Inh is 3

For record `O=C(Nc1n[nH]c2cc(-c3cccc(F)c3)ccc12)C1CC1` the listed %Inh is 0

For record `Cn1cc(-c2ccc3c(c2)CCN3C(=O)Cc2ccccc2Cl)c2c(N)ncnc21` the listed %Inh is 15

For record `Fc1ccc(-c2ncn(CCCN3CCOCC3)c2-c2ccccn2)cc1` the listed %Inh is 0

For record `CN(C1=C(c2ccccc2)C(=O)NC1=O)c1ccccc1` the listed %Inh is 18

For record `CCc1ccnc(/C=C/c2n[nH]c3cc(Sc4ccccc4C(=O)NC)ccc23)c1` the listed %Inh is 11

For record `Nc1nccc(-c2c(-c3ccc(F)cc3)ncn2C2CCN(CC(F)(F)F)CC2)n1` the listed %Inh is 0

For record `CC(=O)Nc1ccc(COc2ccc(Nc3ccnc4cc(-c5ccccn5)ccc34)cc2)cc1.Cl` the listed %Inh is 0

For record `Cc1ccc(NC(=O)c2ccnc(N3CCN(C)CC3)c2)cc1-c1ccc(C(=O)NCC2CC2)cc1` the listed %Inh is 0

For record `CCCCCc1nc2c(N)ncnc2n1CCCCC` the listed %Inh is 0
